Record type: pIC50 measurement. Applies to: Lyn (Homo sapiens, UniProt P07948)
pIC50: −log10 of the molar value.

molecule: COc1cc(Nc2ncnc(Nc3cc(C)c(O)cc3C)n2)cc(OC)c1OC [Compound 94]
pIC50: > 6.00

molecule: COc1cc(Nc2ncnc(-n3cc(CCO)c4ccccc43)n2)cc(OC)c1OC [Compound 463]
pIC50: 5.24 to 6.02

molecule: COc1cc(Nc2ncnc(-n3c(NCc4ccccc4F)nc4ccccc43)n2)cc(OC)c1OC [Compound 512]
pIC50: > 6.10

molecule: COc1cc(Nc2ncnc(N3CCCc4ccc(C(F)(F)F)cc43)n2)cc(OC)c1OC [Compound 518]
pIC50: 5.28 to 6.06

* * *

Listing of entries alongside the reported pIC50.
- system.under.test: Itk (Homo sapiens, UniProt Q08881)
- Construct: Kinases are expressed as either kinase domains or full length constructs; made in house
- Sequence (Q08881 whole entry, species assumed, the tested form may be a part): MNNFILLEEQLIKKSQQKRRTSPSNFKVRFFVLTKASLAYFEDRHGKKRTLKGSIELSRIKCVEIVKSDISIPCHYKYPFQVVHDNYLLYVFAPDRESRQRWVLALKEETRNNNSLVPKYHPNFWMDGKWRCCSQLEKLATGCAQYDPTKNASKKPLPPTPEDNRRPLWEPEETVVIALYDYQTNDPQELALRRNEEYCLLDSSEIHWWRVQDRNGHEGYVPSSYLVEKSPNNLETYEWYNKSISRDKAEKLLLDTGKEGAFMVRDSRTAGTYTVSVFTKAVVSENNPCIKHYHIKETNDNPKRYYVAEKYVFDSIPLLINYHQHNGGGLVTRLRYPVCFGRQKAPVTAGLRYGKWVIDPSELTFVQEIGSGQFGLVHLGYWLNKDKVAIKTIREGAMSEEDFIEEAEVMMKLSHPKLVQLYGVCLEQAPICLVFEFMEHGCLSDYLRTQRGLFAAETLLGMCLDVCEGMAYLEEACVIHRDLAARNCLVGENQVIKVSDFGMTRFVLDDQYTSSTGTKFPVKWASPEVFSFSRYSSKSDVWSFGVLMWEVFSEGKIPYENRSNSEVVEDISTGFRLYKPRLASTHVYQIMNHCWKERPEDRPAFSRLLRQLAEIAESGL
- protocol.notes: Kinase inhibition assay (33P transfer), Itk
- Assay type: biochemical
- protocol.conditions: Table 3, class symbols; read-out: Itk-1
pIC50: −log10 of the molar value.
measured.endpoint: pIC50

molecule: CC(C)Nc1ncccc1-c1ncnc(Nc2ccc3[nH]ncc3c2)n1 [Compound 1116]
measured.endpoint: pIC50
value.observed: < 4.89
//
molecule: Nc1nc2ccccc2n1-c1ncnc(Nc2cccc(Cn3ccnn3)c2)n1 [Compound 960]
measured.endpoint: pIC50
value.observed: 5.20 to 5.98
//
molecule: c1ccc(CNc2ncccc2-c2ncnc(Nc3cccc(Cn4ccnn4)c3)n2)cc1 [Compound 1101]
measured.endpoint: pIC50
value.observed: 5.09 to 5.26
//
molecule: c1ccc(CNc2ncccc2-c2ncnc(Nc3ccc(N4CCOCC4)cc3)n2)cc1 [Compound 1105]
measured.endpoint: pIC50
value.observed: < 4.99
//
molecule: COC(=O)c1ccc(-c2cc(Nc3ncnc(Nc4ccc(N5CCOCC5)cc4)n3)[nH]n2)cc1 [Compound 807]
measured.endpoint: pIC50
value.observed: 5.13 to 5.29
//
molecule: COC(=O)c1cccc(Nc2ncnc(-n3c(Cl)nc4ccccc43)n2)c1 [Compound 1066]
measured.endpoint: pIC50
value.observed: < 4.93
//
molecule: CCOc1cccc(Nc2ncnc(Nc3cc(-c4ccc(C(=O)OC)cc4)n[nH]3)n2)c1 [Compound 812]
measured.endpoint: pIC50
value.observed: 4.98 to 5.09

* * *

- system.under.test: Itk (Homo sapiens)
- Construct: Kinases are expressed as either kinase domains or full length constructs; made in house
- protocol.notes: Kinase inhibition assay (33P transfer), Itk
- Type: biochemical
- protocol.conditions: Table 3, class symbols; read-out: Itk-1

compound: COC(=O)c1ccc(-c2cc(Nc3ncnc(NCCCO)n3)[nH]n2)cc1 [Compound 818]
IC50: > 12.2 µM
--
compound: Cc1nccc(-c2cccc(Nc3ncnc(Nc4ccc5c(cnn5Cc5ccccc5)c4)n3)c2)n1 [Compound 901]
IC50: 0.824 to 4.94 µM
--
compound: COC(=O)c1ccc(-c2cc(Nc3ncnc(Nc4cc(=O)n(-c5ccccc5)[nH]4)n3)[nH]n2)cc1 [Compound 880]
IC50: > 9.59 µM
--
compound: COc1cc(Nc2ncnc(-c3cccnc3N[C@H](C)c3ccccc3)n2)cc(OC)c1OC [Compound 1110]
IC50: > 9.81 µM
--
compound: COc1ccc(Nc2ncnc(NCCc3ccc(Cl)c(Cl)c3)n2)cc1OC [Compound 859]
IC50: 0.952 to 5.71 µM
--
compound: COC(=O)c1ccc(-c2cc(Nc3ncnc(NCc4cccs4)n3)[nH]n2)cc1 [Compound 877]
IC50: 0.982 to 5.89 µM
--
compound: COc1cc(Nc2ncnc(N3CCCc4cc(Cl)ccc43)n2)cc(OC)c1OC [Compound 639]
IC50: > 10.5 µM
--
compound: COc1ccc(CCNc2ncnc(Nc3cc(-c4ccco4)[nH]n3)n2)cc1OC [Compound 823]
IC50: 0.982 to 5.89 µM
--
compound: COc1ccc(Nc2ncnc(N(C)c3ccc(OC(F)(F)F)cc3)n2)cc1OC [Compound 866]
IC50: > 10.7 µM
--
compound: O=C(O)CCNC(=O)c1ccc(Nc2ncnc(Nc3cc(-c4ccco4)[nH]n3)n2)cc1 [Compound 885]
IC50: 0.921 to 5.52 µM
--
compound: COc1ccc(Nc2ncnc(N(C)C3CCN(C)CC3)n2)cc1OC [Compound 861]
IC50: > 12.6 µM
--
compound: COc1cc(Nc2ncnc(-c3cccnc3Nc3cccc(Oc4ccccc4)c3)n2)cc(OC)c1OC [Compound 840]
IC50: > 8.61 µM
--
compound: CC(C)Nc1ncccc1-c1ncnc(Nc2ccc(N3CCOCC3)cc2)n1 [Compound 1112]
IC50: 8.94 to 11.5 µM
--
compound: COC(=O)c1ccc(-c2cc(Nc3ncnc(NCc4ccccc4OC)n3)[nH]n2)cc1 [Compound 815]
IC50: > 10.4 µM
--
compound: COc1cccc(Nc2ncccc2-c2ncnc(Nc3cc(OC)c(OC)c(OC)c3)n2)c1 [Compound 829]
IC50: > 9.77 µM
--
compound: COc1ccc(Nc2ncnc(N(C)C3CCN(Cc4ccccc4)C3)n2)cc1OC (stereo not drawn) [Compound 802]
IC50: > 10.7 µM
--
compound: NC(=O)Cc1cccc(Nc2ncnc(Nc3cccc(Br)c3)n2)c1 [Compound 966]
IC50: > 11.3 µM
--
compound: COC(=O)c1ccc(-c2cc(Nc3ncnc(NCc4ccco4)n3)[nH]n2)cc1 [Compound 805]
IC50: 6.13 to 8.94 µM
--
compound: COc1cc(Nc2ncnc(-c3cccnc3NC(C)c3cccc4ccccc34)n2)cc(OC)c1OC (stereo not drawn) [Compound 845]
IC50: > 8.85 µM
--
compound: COc1cc(Nc2ncnc(-c3cccnc3NCc3ccccc3OC(F)(F)F)n2)cc(OC)c1OC [Compound 842]
IC50: > 8.51 µM
--
compound: COc1cc(Nc2ncnc(-c3cccnc3Nc3ccc4c(c3)CCC4)n2)cc(OC)c1OC [Compound 830]
IC50: > 9.56 µM
